Each entry below carries its recorded MIC99.
- System: Mycobacterium tuberculosis
- Assay text: Antimycobacterial activity against XDR clinical isolate Mycobacterium tuberculosis 7357/1998 assessed as inhibition of mycobacterial growth measured after 14 to 21 days of incubation by Sulas semisynthetic medium based assay
- Format: functional
- Setup conditions: time 14-21 day
Please respond with the number in µM and leave the unit unwritten.

Example compounds with recorded MIC99:
COc1nc(N2CCOCC2)nc2ncn(Cc3ccc4ccccc4c3)c12
16
c1ccc(CNc2nc(N3CCOCC3)nc3ncn(Cc4ccc5ccccc5c4)c23)cc1
4

Dear colleague, I am looking for the recorded MIC99 of the following compound: "O=c1[nH]c(N2CCSCC2)nc2ncn(Cc3ccc4ccccc4c3)c12"
16

Dear colleague, I am looking for the recorded MIC99 of the following compound: "O=c1[nH]c(N2CCOCC2)nc2ncn(Cc3ccc4ccccc4c3)c12"
64

Dear colleague, I am looking for the recorded MIC99 of the following compound: "c1ccc2cc(Cn3cnc4nc(N5CCOCC5)nc(NC5CCC5)c43)ccc2c1"
8

Dear colleague, I am looking for the recorded MIC99 of the following compound: "O=c1[nH]c(N2CCCCC2)nc2ncn(Cc3ccc4ccccc4c3)c12"
16

* * *

- Assay text: Aqueous solubility of compound incubated for 20 mins by UV-Visible spectrophotometric analysis
- Type: physicochemical
- Setup conditions: buffer
Label true when solubility at 20 min >= 100 µM; otherwise false.

Sample answers from the record:
O=c1[nH]c(N2CCSCC2)nc2ncn(Cc3ccc4ccccc4c3)c12
false
O=c1[nH]c(N2CCCCC2)nc2ncn(Cc3ccc4ccccc4c3)c12
false
O=c1[nH]c(N2CCOCC2)nc2ncn(Cc3ccc4ccccc4c3)c12
false

Reported solubility at 20 min reaches at least 100 µM for "CCNc1nc(N2CCOCC2)nc2ncn(Cc3ccc4ccccc4c3)c12" ?
true

Reported solubility at 20 min reaches at least 100 µM for "c1ccc2cc(Cn3cnc4nc(N5CCOCC5)nc(NC5CCC5)c43)ccc2c1" ?
true

Reported solubility at 20 min reaches at least 100 µM for "c1ccc(CNc2nc(N3CCOCC3)nc3ncn(Cc4ccc5ccccc5c4)c23)cc1" ?
false

Reported solubility at 20 min reaches at least 100 µM for "CCOc1nc(N2CCOCC2)nc2ncn(Cc3ccc4ccccc4c3)c12" ?
false

* * *

- Tested on: HepG2
- Assay text: Cytotoxicity against human HepG2 cells incubated for 24 hrs by MTT assay
- Type: functional, cell-based
- Setup conditions: HepG2, 24 h
Each entry below carries its recorded pIC50.
Remember the convention: pIC50 equals -log10 of concentration in molar.

Dear colleague, I am looking for the recorded pIC50 of the following compound: "CN(C)c1nc(N2CCOCC2)nc2ncn(Cc3ccc4ccccc4c3)c12"
4.25

Dear colleague, I am looking for the recorded pIC50 of the following compound: "CCNc1nc(N2CCOCC2)nc2ncn(Cc3ccc4ccccc4c3)c12"
4.19

Dear colleague, I am looking for the recorded pIC50 of the following compound: "COc1nc(N2CCOCC2)nc2ncn(Cc3ccc4ccccc4c3)c12"
4.19

Dear colleague, I am looking for the recorded pIC50 of the following compound: "CSc1nc(N2CCOCC2)nc2ncn(Cc3ccc4ccccc4c3)c12"
4.37

Dear colleague, I am looking for the recorded pIC50 of the following compound: "CCOc1nc(N2CCOCC2)nc2ncn(Cc3ccc4ccccc4c3)c12"
4.36

Dear colleague, I am looking for the recorded pIC50 of the following compound: "CNc1nc(N2CCOCC2)nc2ncn(Cc3ccc4ccccc4c3)c12"
4.23

Dear colleague, I am looking for the recorded pIC50 of the following compound: "CCNc1nc(N2CCOCC2)nc2ncn(Cc3ccc4cc(F)ccc4c3)c12"
4.39

Dear colleague, I am looking for the recorded pIC50 of the following compound: "O=c1[nH]c(N2CCCCC2)nc2ncn(Cc3ccc4ccccc4c3)c12"
4.06

* * *

Each entry below carries its recorded Selectivity Index.
- Assay text: Selectivity index, ratio of IC50 for cytotoxicity against human HepG2 cells by MTT assay to MIC99 for antitubercular activity against Mycobacterium tuberculosis CNCTC My 331/88 (H37Rv) assessed as inhibition of bacterial growth measured after 14 days of incubation
- Format: functional
- Setup conditions: time 14 day
A bare number is all that is needed in reply.

CCNc1nc(N2CCOCC2)nc2ncn(Cc3ccc4ccccc4c3)c12
63.88

Dear colleague, I am looking for the recorded Selectivity Index of the following molecule: "CCCNc1nc(N2CCOCC2)nc2ncn(Cc3ccc4ccccc4c3)c12"
10.1

Dear colleague, I am looking for the recorded Selectivity Index of the following molecule: "c1ccc(CNc2nc(N3CCOCC3)nc3ncn(Cc4ccc5ccccc5c4)c23)cc1"
16.9

Dear colleague, I am looking for the recorded Selectivity Index of the following molecule: "c1ccc2cc(Cn3cnc4nc(N5CCOCC5)nc(NC5CCC5)c43)ccc2c1"
16.5

Dear colleague, I am looking for the recorded Selectivity Index of the following molecule: "COc1nc(N2CCOCC2)nc2ncn(Cc3ccc4ccccc4c3)c12"
32

Dear colleague, I am looking for the recorded Selectivity Index of the following molecule: "CCCCNc1nc(N2CCOCC2)nc2ncn(Cc3ccc4ccccc4c3)c12"
7.7

Dear colleague, I am looking for the recorded Selectivity Index of the following molecule: "O=c1[nH]c(N2CCSCC2)nc2ncn(Cc3ccc4ccccc4c3)c12"
16

Dear colleague, I am looking for the recorded Selectivity Index of the following molecule: "c1ccc2cc(Cn3cnc4nc(N5CCOCC5)nc(NC5CCCCC5)c43)ccc2c1"
0.59

* * *

- Assay text: Selectivity index, ratio of IC50 for cytotoxicity against human HepG2 cells by MTT assay to MIC99 for antitubercular activity against Mycobacterium tuberculosis CNCTC My 331/88 (H37Rv) assessed as inhibition of bacterial growth measured after 14 days of incubation
- Type: functional
- Setup conditions: time 14 day
Label Satisfied when Selectivity Index >= 20; otherwise Not satisfied.

Sample answers from the record:
CCSc1nc(N2CCOCC2)nc2ncn(Cc3ccc4ccccc4c3)c12
Not satisfied
CCNc1nc(N2CCOCC2)nc2ncn(Cc3ccc4ccccc4n3)c12
Satisfied
CN(C)c1nc(N2CCOCC2)nc2ncn(Cc3ccc4ccccc4c3)c12
Not satisfied
CCNc1nc(N2CCOCC2)nc2ncn(Cc3ccc4cc(F)ccc4c3)c12
Not satisfied
Clc1nc(N2CCOCC2)nc2ncn(Cc3ccc4ccccc4c3)c12
Not satisfied
O=c1[nH]c(N2CCCCC2)nc2ncn(Cc3ccc4ccccc4c3)c12
Satisfied
CCOc1nc(N2CCOCC2)nc2ncn(Cc3ccc4ccccc4c3)c12
Satisfied
O=c1[nH]c(N2CCOCC2)nc2ncn(Cc3ccc4ccccc4c3)c12
Satisfied
CNc1nc(N2CCOCC2)nc2ncn(Cc3ccc4ccccc4c3)c12
Not satisfied

We next turn to a different compound, shown below.
Reported Selectivity Index reaches at least 20 for "CSc1nc(N2CCOCC2)nc2ncn(Cc3ccc4ccccc4c3)c12" ?
Not satisfied

* * *

- System: Mycobacterium tuberculosis
- Assay text: Antimycobacterial activity against XDR clinical isolate Mycobacterium tuberculosis PRAHA 1 assessed as inhibition of mycobacterial growth measured after 14 to 21 days of incubation by Sulas semisynthetic medium based assay
- Format: functional
- Setup conditions: time 14-21 day
Readout kind: MIC99 (µM)
Please respond with the number in µM and leave the unit unwritten.

O=c1[nH]c(N2CCOCC2)nc2ncn(Cc3ccc4ccccc4c3)c12
64
COc1nc(N2CCOCC2)nc2ncn(Cc3ccc4ccccc4c3)c12
16
c1ccc2cc(Cn3cnc4nc(N5CCOCC5)nc(NC5CCC5)c43)ccc2c1
4

Dear colleague, I am looking for the recorded MIC99 of the following molecule: "O=c1[nH]c(N2CCCCC2)nc2ncn(Cc3ccc4ccccc4c3)c12"
16

Dear colleague, I am looking for the recorded MIC99 of the following molecule: "c1ccc(CNc2nc(N3CCOCC3)nc3ncn(Cc4ccc5ccccc5c4)c23)cc1"
4

Dear colleague, I am looking for the recorded MIC99 of the following molecule: "O=c1[nH]c(N2CCSCC2)nc2ncn(Cc3ccc4ccccc4c3)c12"
16

* * *

- Assay text: Intrinsic clearance in human liver microsomes at 3 uM incubated for 5 to 45 min in presence of NADPH by LC-MS analysis
- Type: ADME, Microsome
- Setup conditions: time 5-45 min, read-out: CLH
Readout kind: microsomal CLint at 3 µM (µL/min/mg)
Please respond with the number in µL/min/mg and leave the unit unwritten.

O=c1[nH]c(N2CCCCC2)nc2ncn(Cc3ccc4ccccc4c3)c12
77.9
c1ccc(CNc2nc(N3CCOCC3)nc3ncn(Cc4ccc5ccccc5c4)c23)cc1
72.1
CCNc1nc(N2CCOCC2)nc2ncn(Cc3ccc4ccccc4c3)c12
27
O=c1[nH]c(N2CCSCC2)nc2ncn(Cc3ccc4ccccc4c3)c12
127
c1ccc2cc(Cn3cnc4nc(N5CCOCC5)nc(NC5CCC5)c43)ccc2c1
36.6

Dear colleague, I am looking for the recorded microsomal CLint at 3 µM of the following compound: "O=c1[nH]c(N2CCOCC2)nc2ncn(Cc3ccc4ccccc4c3)c12"
12.6

Dear colleague, I am looking for the recorded microsomal CLint at 3 µM of the following compound: "CCOc1nc(N2CCOCC2)nc2ncn(Cc3ccc4ccccc4c3)c12"
24.4

Dear colleague, I am looking for the recorded microsomal CLint at 3 µM of the following compound: "Nc1nc(N2CCOCC2)nc2ncn(Cc3ccc4ccccc4c3)c12"
16.8
